Overview of reported koff across a group of binders:
STUDY SYSTEM: chicken IgY (chicken)
EXPERIMENT: BLI; Octet, SAX (streptavidin) biosensors; recombinant Fabs against IgY; KD from a kinetic 1:1 model, global fit over multiple concentrations (partial fits averaged for 3 low-affinity Fabs)
State the answer as a number, implicitly in s⁻¹.

BINDER: clone 2.1 Fab TA_13 (Fab, V domains shown) VH: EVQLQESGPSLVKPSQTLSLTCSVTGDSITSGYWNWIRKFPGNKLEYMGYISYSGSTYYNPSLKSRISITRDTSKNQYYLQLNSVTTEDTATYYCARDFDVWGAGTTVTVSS VL: DIVMTQSQKFMSTSVGDRVSVTCKASQNVGTNVGWFQQKPGQSPKALIYSASYRYSGVPDRFTGSGSGTDFTLTISNVQSEDLAEYFCHQYYSYPLTFGSGTKLEIK
UNIT SYMBOL: s⁻¹
koff: 0.000119

BINDER: clone 2.1 Fab TA_14 (Fab, V domains shown) VH: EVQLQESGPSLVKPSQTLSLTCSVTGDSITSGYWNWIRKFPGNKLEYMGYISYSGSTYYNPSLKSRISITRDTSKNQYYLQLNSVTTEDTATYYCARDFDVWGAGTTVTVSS VL: DIVMTQSQKFMSTSVGDRVSVTCKASQNVGTNVAWYQQKPGQSPKSLIYSASYRYSGVPDRFTGSGSGTDFTLTISNVQSEDLAEYFCQQYNSYPLTFGSGTKLEIK
UNIT SYMBOL: s⁻¹
koff: 0.00139

Alright, here's another binder for you.
Req: Could you share which koff value was measured for clone 2.1 Fab TA_11 (Fab, V domains shown) VH: EVQLQESGPSLVKPSQTLSLTCSVTGDSITSGYWNWIRKFPGNRLEYMGYISYSGSTYYNPSLKSRISITRDTSKNQYYLQLNSVTTEDTATYYCARDFDVWGAGTTVTVSS VL: DIVMTQSQKFMSTSVGDRVSVTCKASQNVGTNVAWYQQKPGQSPKALIYSASYRYSGVPDRFTGSGSGTDFTLTISNVQSEDLAEYFCQQYNSYPLTFGSGTKLEIK ?
Resp: 0.00331
